Origin of the recorded values: the NIST ThermoML archive (doi:10.1016/j.jct.2014.02.009)

# measurement-context: 298.15 K; 100 kPa; Liquid; Vibrating tube method
measured-parameter: mass density (kg/m3)

1. O=C1CCCCCN1.O=CO [ε-caprolactam formate] ... 1082.87
2. O=C1CCCN1.O=CO [γ-butyrolactam formate] ... 1136.14
3. CCCCCC(=O)O.O=C1CCCN1 [γ-butyrolactam hexanoate] ... 1014.67
4. CC(=O)O.O=C1CCCN1 [γ-butyrolactam acetate] ... 1095.35
5. CC(=O)O.O=C1CCCCCN1 [ε-caprolactam acetate] ... 1055.92
6. CCCCCC(=O)O.O=C1CCCCCN1 [ε-caprolactam hexanoate] ... 994.69

----------
# measurement-context: 318.15 K; 100 kPa; Liquid; Vibrating tube method
measured-parameter: mass density (kg/m3)

1) O=C1CCCCCN1.O=CO [ε-caprolactam formate] ... 1066.13
2) CCCCCC(=O)O.O=C1CCCN1 [γ-butyrolactam hexanoate] ... 998.27
3) CC(=O)O.O=C1CCCCCN1 [ε-caprolactam acetate] ... 1039.56
4) CC(=O)O.O=C1CCCN1 [γ-butyrolactam acetate] ... 1077.57
5) O=C1CCCN1.O=CO [γ-butyrolactam formate] ... 1117.61
6) CCCCCC(=O)O.O=C1CCCCCN1 [ε-caprolactam hexanoate] ... 979.04

----------
# measurement-context: 308.15 K; 100 kPa; Liquid; Vibrating tube method
measured-parameter: mass density (kg/m3)

1. CCCCCC(=O)O.O=C1CCCCCN1 [ε-caprolactam hexanoate] ... 986.88
2. CC(=O)O.O=C1CCCN1 [γ-butyrolactam acetate] ... 1086.47
3. CC(=O)O.O=C1CCCCCN1 [ε-caprolactam acetate] ... 1047.74
4. O=C1CCCN1.O=CO [γ-butyrolactam formate] ... 1126.89
5. CCCCCC(=O)O.O=C1CCCN1 [γ-butyrolactam hexanoate] ... 1006.47
6. O=C1CCCCCN1.O=CO [ε-caprolactam formate] ... 1074.51

----------
# measurement-context: 328.15 K; 100 kPa; Liquid; Sing-around technique in a fixed-path interferometer
Item-by-item account of speed of sound
measured-parameter: speed of sound (m/s)

1. CC(=O)O.O=C1CCCCCN1 [ε-caprolactam acetate] ... 1406
2. O=C1CCCN1.O=CO [γ-butyrolactam formate] ... 1422.1
3. O=C1CCCCCN1.O=CO [ε-caprolactam formate] ... 1441.1
4. CC(=O)O.O=C1CCCN1 [γ-butyrolactam acetate] ... 1395.7
5. CCCCCC(=O)O.O=C1CCCCCN1 [ε-caprolactam hexanoate] ... 1353.4
6. CCCCCC(=O)O.O=C1CCCN1 [γ-butyrolactam hexanoate] ... 1314.7

----------
Item-by-item account of speed of sound
# measurement-context: 308.15 K; 100 kPa; Liquid; Sing-around technique in a fixed-path interferometer
measured-parameter: speed of sound (m/s)

1. CC(=O)O.O=C1CCCN1 [γ-butyrolactam acetate] ... 1464
2. CCCCCC(=O)O.O=C1CCCCCN1 [ε-caprolactam hexanoate] ... 1421.9
3. CCCCCC(=O)O.O=C1CCCN1 [γ-butyrolactam hexanoate] ... 1379.6
4. O=C1CCCN1.O=CO [γ-butyrolactam formate] ... 1484.4
5. CC(=O)O.O=C1CCCCCN1 [ε-caprolactam acetate] ... 1472.8
6. O=C1CCCCCN1.O=CO [ε-caprolactam formate] ... 1504.4

----------
# measurement-context: 293.15 K; 100 kPa; Liquid; Falling or rolling sphere viscometry
Label 1.0 for high-side viscosity (at or above 10 mPa·s) and 0.0 for low-side viscosity (below it).

1. CC(=O)O.O=C1CCCN1 [γ-butyrolactam acetate] ... 0.0
2. CC(=O)O.O=C1CCCCCN1 [ε-caprolactam acetate] ... 1.0
3. O=C1CCCN1.O=CO [γ-butyrolactam formate] ... 0.0
4. CCCCCC(=O)O.O=C1CCCCCN1 [ε-caprolactam hexanoate] ... 1.0
5. CCCCCC(=O)O.O=C1CCCN1 [γ-butyrolactam hexanoate] ... 1.0
6. O=C1CCCCCN1.O=CO [ε-caprolactam formate] ... 1.0

----------
# measurement-context: 318.15 K; 100 kPa; Liquid; Sing-around technique in a fixed-path interferometer
Item-by-item account of speed of sound
measured-parameter: speed of sound (m/s)

1) CC(=O)O.O=C1CCCN1 [γ-butyrolactam acetate] ... 1429.3
2) O=C1CCCCCN1.O=CO [ε-caprolactam formate] ... 1472.8
3) O=C1CCCN1.O=CO [γ-butyrolactam formate] ... 1452.9
4) CCCCCC(=O)O.O=C1CCCN1 [γ-butyrolactam hexanoate] ... 1346.9
5) CCCCCC(=O)O.O=C1CCCCCN1 [ε-caprolactam hexanoate] ... 1387.8
6) CC(=O)O.O=C1CCCCCN1 [ε-caprolactam acetate] ... 1439.3

----------
# measurement-context: 333.15 K; 100 kPa; Liquid; Vibrating tube method
measured-parameter: mass density (kg/m3)

1. CCCCCC(=O)O.O=C1CCCCCN1 [ε-caprolactam hexanoate] ... 967.34
2. CC(=O)O.O=C1CCCN1 [γ-butyrolactam acetate] ... 1064.24
3. O=C1CCCN1.O=CO [γ-butyrolactam formate] ... 1103.72
4. O=C1CCCCCN1.O=CO [ε-caprolactam formate] ... 1053.59
5. CC(=O)O.O=C1CCCCCN1 [ε-caprolactam acetate] ... 1027.28
6. CCCCCC(=O)O.O=C1CCCN1 [γ-butyrolactam hexanoate] ... 985.98

----------
Item-by-item account of mass density
# measurement-context: 303.15 K; 100 kPa; Liquid; Vibrating tube method
measured-parameter: mass density (kg/m3)

1) CC(=O)O.O=C1CCCN1 [γ-butyrolactam acetate] ... 1090.91
2) O=C1CCCCCN1.O=CO [ε-caprolactam formate] ... 1078.69
3) CCCCCC(=O)O.O=C1CCCN1 [γ-butyrolactam hexanoate] ... 1010.57
4) CC(=O)O.O=C1CCCCCN1 [ε-caprolactam acetate] ... 1051.83
5) CCCCCC(=O)O.O=C1CCCCCN1 [ε-caprolactam hexanoate] ... 990.78
6) O=C1CCCN1.O=CO [γ-butyrolactam formate] ... 1131.51

----------
# measurement-context: 313.15 K; 100 kPa; Liquid; Falling or rolling sphere viscometry
measured-parameter: viscosity (mPa·s)

1. O=C1CCCN1.O=CO [γ-butyrolactam formate] ... 4.09
2. CCCCCC(=O)O.O=C1CCCN1 [γ-butyrolactam hexanoate] ... 7.4
3. CC(=O)O.O=C1CCCCCN1 [ε-caprolactam acetate] ... 13.68
4. O=C1CCCCCN1.O=CO [ε-caprolactam formate] ... 12.36
5. CCCCCC(=O)O.O=C1CCCCCN1 [ε-caprolactam hexanoate] ... 14.25
6. CC(=O)O.O=C1CCCN1 [γ-butyrolactam acetate] ... 4.96

----------
# measurement-context: 323.15 K; 100 kPa; Liquid; Falling or rolling sphere viscometry
Numbers after ± are expanded uncertainties.
measured-parameter: viscosity

1) O=C1CCCCCN1.O=CO [ε-caprolactam formate] ... 8.59 ± 0.25 mPa·s
2) CCCCCC(=O)O.O=C1CCCCCN1 [ε-caprolactam hexanoate] ... 9.44 ± 0.28 mPa·s
3) CC(=O)O.O=C1CCCN1 [γ-butyrolactam acetate] ... 3.83 ± 0.1 mPa·s
4) CCCCCC(=O)O.O=C1CCCN1 [γ-butyrolactam hexanoate] ... 5.61 ± 0.16 mPa·s
5) CC(=O)O.O=C1CCCCCN1 [ε-caprolactam acetate] ... 9.19 ± 0.27 mPa·s
6) O=C1CCCN1.O=CO [γ-butyrolactam formate] ... 3.25 ± 0.08 mPa·s

----------
# measurement-context: 313.15 K; 100 kPa; Liquid; Sing-around technique in a fixed-path interferometer
Item-by-item account of speed of sound
measured-parameter: speed of sound (m/s)

1) CCCCCC(=O)O.O=C1CCCCCN1 [ε-caprolactam hexanoate] ... 1404.8
2) CC(=O)O.O=C1CCCN1 [γ-butyrolactam acetate] ... 1447.2
3) CCCCCC(=O)O.O=C1CCCN1 [γ-butyrolactam hexanoate] ... 1363.2
4) CC(=O)O.O=C1CCCCCN1 [ε-caprolactam acetate] ... 1456.1
5) O=C1CCCN1.O=CO [γ-butyrolactam formate] ... 1468.5
6) O=C1CCCCCN1.O=CO [ε-caprolactam formate] ... 1488.5

----------
Item-by-item account of viscosity
# measurement-context: 333.15 K; 100 kPa; Liquid; Falling or rolling sphere viscometry
measured-parameter: viscosity (mPa·s)

1) O=C1CCCN1.O=CO [γ-butyrolactam formate] ... 2.65
2) CC(=O)O.O=C1CCCN1 [γ-butyrolactam acetate] ... 3.06
3) CC(=O)O.O=C1CCCCCN1 [ε-caprolactam acetate] ... 6.48
4) CCCCCC(=O)O.O=C1CCCN1 [γ-butyrolactam hexanoate] ... 4.39
5) O=C1CCCCCN1.O=CO [ε-caprolactam formate] ... 6.27
6) CCCCCC(=O)O.O=C1CCCCCN1 [ε-caprolactam hexanoate] ... 6.64
